System: ChaGo-K-1
Test: relative viability (nuclei count vs DMSO), 5 days (fraction); higher = more cells survive
Settings: first compound 0.08 µM
In this section, each of the molecules is paired with its reported relative viability.
MEASURE: relative viability

{"MOLECULE": "C=C1C(=O)O[C@@H](CCCCCCCC)[C@@H]1C(=O)O [C-75] + CCNC(=O)c1noc(-c2cc(C(C)C)c(O)cc2O)c1-c1ccc(CN2CCOCC2)cc1 [Luminespib] (partner 0.01 µM)", "SYSTEM NAME": "ChaGo-K-1", "MEASURE": "relative viability", "MEASUREMENT": 0.524}
{"MOLECULE": "Oc1nc(-c2ccc(C(F)(F)F)cc2)nc2c1CSCC2 [XAV939] + CC1(C)CCC(c2ccc(Cl)cc2)=C(CN2CCN(c3ccc(C(=O)NS(=O)(=O)c4ccc(N[C@H](CCN5CCOCC5)CSc5ccccc5)c(S(=O)(=O)C(F)(F)F)c4)cc3)CC2)C1 [Navitoclax] (partner 0.5 µM)", "SYSTEM NAME": "ChaGo-K-1", "MEASURE": "relative viability", "MEASUREMENT": 0.898}
{"MOLECULE": "Oc1nc(-c2ccc(C(F)(F)F)cc2)nc2c1CSCC2 [XAV939] + CC(C)C[C@H](NC(=O)[C@H](Cc1ccccc1)NC(=O)c1cnccn1)B(O)O [Bortezomib] (partner 0.002 µM)", "SYSTEM NAME": "ChaGo-K-1", "MEASURE": "relative viability", "MEASUREMENT": 0.967}
{"MOLECULE": "C=C1C(=O)O[C@@H](CCCCCCCC)[C@@H]1C(=O)O [C-75] + COc1cc2c(Oc3ccc(NC(=O)C4(C(=O)Nc5ccc(F)cc5)CC4)cc3F)ccnc2cc1OCCCN1CCOCC1 [Foretinib] (partner 0.25 µM)", "SYSTEM NAME": "ChaGo-K-1", "MEASURE": "relative viability", "MEASUREMENT": 0.915}
{"MOLECULE": "Oc1nc(-c2ccc(C(F)(F)F)cc2)nc2c1CSCC2 [XAV939] + COc1cc2c(Oc3ccc(NC(=O)C4(C(=O)Nc5ccc(F)cc5)CC4)cc3F)ccnc2cc1OCCCN1CCOCC1 [Foretinib] (partner 0.25 µM)", "SYSTEM NAME": "ChaGo-K-1", "MEASURE": "relative viability", "MEASUREMENT": 0.874}
{"MOLECULE": "Oc1nc(-c2ccc(C(F)(F)F)cc2)nc2c1CSCC2 [XAV939] + Cc1nc(Nc2ncc(C(=O)Nc3c(C)cccc3Cl)s2)cc(N2CCN(CCO)CC2)n1 [Dasatinib] (partner 0.075 µM)", "SYSTEM NAME": "ChaGo-K-1", "MEASURE": "relative viability", "MEASUREMENT": 0.654}
{"MOLECULE": "C=C1C(=O)O[C@@H](CCCCCCCC)[C@@H]1C(=O)O [C-75] + CC(=O)Nc1cccc(-n2c(=O)n(C3CC3)c(=O)c3c(Nc4ccc(I)cc4F)n(C)c(=O)c(C)c32)c1 [Trametinib] (partner 0.02 µM)", "SYSTEM NAME": "ChaGo-K-1", "MEASURE": "relative viability", "MEASUREMENT": 0.878}
{"MOLECULE": "C=C1C(=O)O[C@@H](CCCCCCCC)[C@@H]1C(=O)O [C-75] + N=C(N)NC(=N)NCCc1ccccc1 [Phenformin] (partner 250 µM)", "SYSTEM NAME": "ChaGo-K-1", "MEASURE": "relative viability", "MEASUREMENT": 0.461}

Cited source for all entries: the supplement of paper PMC10307832
